Test summary: Inhibition of SARS-CoV-1 RdRp-mediated viral replication
Endpoint name: IC50 (µM)
Write the value in µM as a bare number.

# IC50 lookup, item CN(C)CCCSc1ccccc1NC(=O)/C=C/c1ccccc1 [CINANSERIN]
34
